B1: tRNA (parent)
chain: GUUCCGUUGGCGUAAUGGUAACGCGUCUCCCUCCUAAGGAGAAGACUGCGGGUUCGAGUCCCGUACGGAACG

variants of: B1; assay: yeast fitness relative to wild type (ratio to wild type); higher = fitter; tRNA-Arg(CCU), competitive growth, 37 C, YPD
Variants at the floor of the assay were thinned out.
MEASUREMENT_NAME: yeast fitness
Output spec: single numeric token, no unit.

Enquiry: What value of yeast fitness has been recorded for this entry: C5A C34U U35A C49A U54A
Return: 0.661

Enquiry: Here is the next variant: U7A G50A C62U A69C
Return: 0.614

Enquiry: Here is the next variant: C11U A45C C49U
Return: 0.765

Enquiry: Here is the next variant: G18A U19A A70U
Return: 0.657

Enquiry: Here is the next variant: G9C G38C
Return: 0.546

Enquiry: Here is the next variant: C5U C62U
Return: 1.03

Enquiry: Here is the next variant: A21G C24U
Return: 0.989

Enquiry: Here is the next variant: G38C A65U C66U
Return: 0.657

Enquiry: Here is the next variant: C4U A14G A40U
Return: 0.593

Enquiry: Here is the next variant: C29U G63A A70U
Return: 0.6

Enquiry: Here is the next variant: U8A G12C U47A C62U
Return: 0.545

Enquiry: Here is the next variant: A20C U32G A45G U53A U54A
Return: 0.533

Enquiry: Here is the next variant: U3A U19A G58C
Return: 0.675

Enquiry: Here is the next variant: U3G C33U
Return: 0.691

Enquiry: Here is the next variant: G41A A42C
Return: 0.726

Enquiry: Here is the next variant: C22G C34A C49A
Return: 0.818

Enquiry: Here is the next variant: C46U C49G
Return: 0.997

Enquiry: Here is the next variant: A37G A69C
Return: 0.97

Enquiry: Here is the next variant: U2C C34A
Return: 0.77

Enquiry: Here is the next variant: C31U C34G G67A
Return: 0.539

Enquiry: Here is the next variant: U8G C11G U32A
Return: 0.642

Enquiry: Here is the next variant: U13A A21C
Return: 0.65

Enquiry: Here is the next variant: U7A A15G G23A G63C
Return: 0.557

Enquiry: Here is the next variant: A15G A42G A45C
Return: 0.557
